Below, each of the molecules is paired with its reported fluorescence slope value.
SYSTEM_UNDER_TEST: Voltage-gated potassium channel subunit beta-2 (Rattus norvegicus)
ASSAY_NAME: inhibitors of rat Kvbeta2 reductase activity – biochemical, NADPH fluorescence, primary screen (AID 622);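 also: slope of raw intensity against log time taken from 70 to 1610 s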
STUDY_CONDITIONS: recombinant KvBeta, 4-cyanobenzaldehyde reduction, at 10 µM, stronger effect = higher value
Please state the value as a number alone, without comment.

[
  {
    "MOLECULE": "CC(C)(C)SCCNC(=O)COc1ccc(Cl)cc1",
    "QUANTITATIVE_READOUT": -0.419
  },
  {
    "MOLECULE": "CCCCCc1c(C)nc(SCC(=O)O)[nH]c1=O",
    "QUANTITATIVE_READOUT": -0.539
  }
]

# fluorescence slope lookup, item O=C(O)C1C2CCC(O2)C1C(=O)NCCC1=CCCCC1 (configuration not stated) -0.331

# fluorescence slope lookup, item c1coc(CN2CN=C(Nc3nc4ccccc4s3)NC2)c1 -0.357

---

Below, each of the compounds is paired with its reported inhibition value.
ASSAY_NAME: blockers of RIG-like receptor reporter activation – cell-based, Sendai virus stimulus, luciferase, 10K MLSCN set, TLR/RLR signaling modifier project, primary screen (AID 602276);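 also: firefly luciferase from ISG56 promoter only with Renilla not read in this screen; 0% = Sendai virus plus DMSO and 100% = medium plus DMSO without virus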
STUDY_CONDITIONS: HEK293 RL24 IRF3 luciferase reporter, at 10 µM, stronger effect = higher value
Number only, in %; omit the unit.

Sample records with inhibition:
[
  {
    "COMPOUND": "CCOC(=O)CNC(=O)CSc1nnnn1-c1cc(C)ccc1C",
    "RESULT_UNIT": "%",
    "inhibition": 4.69
  },
  {
    "COMPOUND": "COc1cc2c(C)nc(C)c(C#N)c2cc1OC",
    "RESULT_UNIT": "%",
    "inhibition": 2.98
  },
  {
    "COMPOUND": "COc1ccc2[nH]c(=O)c(CNC3CCCCC3)cc2c1",
    "RESULT_UNIT": "%",
    "inhibition": 6.87
  },
  {
    "COMPOUND": "COc1ccccc1CNC(=O)C1CCCN(S(=O)(=O)c2cccc3cccnc23)C1 (stereo not drawn)",
    "RESULT_UNIT": "%",
    "inhibition": 3.46
  },
  {
    "COMPOUND": "CC(C)c1ccc(NC(=O)CCNS(=O)(=O)c2cccc3nonc23)cc1",
    "RESULT_UNIT": "%",
    "inhibition": 16.4
  },
  {
    "COMPOUND": "Cc1ccc(CNC(=O)COC(=O)c2c(C)noc2C)cc1",
    "RESULT_UNIT": "%",
    "inhibition": -1.51
  },
  {
    "COMPOUND": "COc1ccc(-c2ccc(=O)n(Cc3cc(=O)n4ccccc4n3)n2)cc1",
    "RESULT_UNIT": "%",
    "inhibition": 7.67
  },
  {
    "COMPOUND": "O=C1c2ccccc2C(Nc2cccnc2)N1Cc1ccccc1Cl (stereo not drawn)",
    "RESULT_UNIT": "%",
    "inhibition": 3.6
  },
  {
    "COMPOUND": "CN(C)S(=O)(=O)c1ccc(C(=O)NCc2cccs2)cc1",
    "RESULT_UNIT": "%",
    "inhibition": 3.68
  },
  {
    "COMPOUND": "COc1ccc(-c2nc(CS(=O)CC(=O)NCc3ccccn3)c(C)o2)cc1 (stereo not drawn)",
    "RESULT_UNIT": "%",
    "inhibition": 44.5
  }
]

# inhibition lookup, item CCOC(=O)c1cn(CC)c2cc(N3CCOCC3)c(F)cc2c1=O 3.57

# inhibition lookup, item Cc1ccc(C(C(=O)NC2CCCCC2)N2CCOCC2)cc1 (stereo not drawn) -0.432

# inhibition lookup, item CC1=C(C(=O)OC2CCCC2)C(c2ccc(C)o2)C2=C(CC(c3cccs3)CC2=O)N1 (stereo not drawn) -5.28

# inhibition lookup, item O=S1(=O)CCC(NS(=O)(=O)/C=C/c2ccccc2)C1 (stereo not drawn) 4.67

# inhibition lookup, item COc1cc2c3c(c1)/C(=C1/SC(NC(C)=O)=NC1=O)C(=O)N3C(C)(C)C=C2C 18

# inhibition lookup, item CC(O)CN1C(=O)C(CC(=O)Nc2ccc(Cl)cc2)SC1=Nc1ccccc1 (stereo not drawn) 2.35

# inhibition lookup, item CC1=Nn2c(nnc2-c2ccccn2)SC1 7.81

# inhibition lookup, item O=C(c1cc2n(n1)C(C(F)(F)F)CC(c1ccc(Cl)cc1)N2)N1CCCC1 (stereo not drawn) 14.3

# inhibition lookup, item O=C(COC(=O)C12CC3CC(CC(O)(C3)C1)C2)N1CCN(S(=O)(=O)c2ccc(Cl)cc2)CC1 8.77

---

SYSTEM_UNDER_TEST: Voltage-gated potassium channel subunit beta-2 (Rattus norvegicus)
ASSAY_NAME: inhibitors of rat Kvbeta2 reductase activity – biochemical, NADPH fluorescence, primary screen (AID 622);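 also: slope of raw intensity against log time taken from 70 to 1610 s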
STUDY_CONDITIONS: recombinant KvBeta, 4-cyanobenzaldehyde reduction, at 10 µM, stronger effect = higher value
Decision: fluorescence slope >= -0.5 yields Y, all other cases yield N.

[
  {
    "MOLECULE": "Cc1cccnc1NC(=O)CCCN1C(=O)c2ccccc2C1=O",
    "ASSIGNED_LABEL": "Y"
  },
  {
    "MOLECULE": "Cc1cc(C)c(C#N)c(SCc2ccc(C#N)cc2)n1",
    "ASSIGNED_LABEL": "Y"
  },
  {
    "MOLECULE": "COc1ccc(Cl)cc1S(=O)(=O)n1cnc2ccccc21",
    "ASSIGNED_LABEL": "Y"
  }
]

Can O=S(=O)(NCC1CCCO1)c1ccc2c(c1)OCCO2 (stereo not drawn) be said to have fluorescence slope at or above -0.5? Y

Can COc1ccccc1CC(=O)NCc1ccc2c(c1)OCO2 be said to have fluorescence slope at or above -0.5? Y

Can Cc1c(C(=O)N2CCOCC2)oc2ccc(S(=O)(=O)N3CCCC3)cc12 be said to have fluorescence slope at or above -0.5? N

Can Cc1cc(C)cc(-n2nnc(C(=O)NCc3ccco3)c2N)c1 be said to have fluorescence slope at or above -0.5? N

Can CCn1c(=O)c(C(=O)Nc2cccnc2)c(O)c2ccccc21 be said to have fluorescence slope at or above -0.5? Y

Can COc1ccc(-c2cc3ccc(OCc4nn[nH]n4)cc3oc2=O)cc1 be said to have fluorescence slope at or above -0.5? Y

Can COc1ccc(-c2nnc(SCC(=O)NC(C)c3ccccc3)o2)cc1 (stereo not drawn) be said to have fluorescence slope at or above -0.5? N

---

ASSAY_NAME: TLR3 IRF3 reporter activation blockers – cell-based, poly I:C stimulus, luciferase, 10K MLSCN set, primary screen (AID 602277)
STUDY_CONDITIONS: HEK293-TLR3 RL24 IRF3 luciferase reporter, at 10 µM, stronger effect = higher value
PROPERTY: inhibition (%)
Number only, in %; omit the unit.

Sample records with inhibition:
[
  {
    "COMPOUND": "COc1ccc(NC(=O)CN2CCCCC2)cc1",
    "inhibition, %": 11.2
  },
  {
    "COMPOUND": "CCOC(=O)CC(=O)c1cc(OC)c(OC)c(OC)c1",
    "inhibition, %": 12.4
  },
  {
    "COMPOUND": "COc1ccc(N2CCN(Cc3nc(-c4ccc(Cl)cc4Cl)no3)CC2)cc1",
    "inhibition, %": 22.1
  },
  {
    "COMPOUND": "CCOC(=O)C1CCCN(CCCc2ccccc2)C1 (configuration not stated)",
    "inhibition, %": 38
  },
  {
    "COMPOUND": "CCn1nc(C(=O)OCC(=O)N2CCc3ccccc32)c2ccccc2c1=O",
    "inhibition, %": 13.2
  }
]

Please turn your attention to the following entry.
# inhibition lookup, item C=CC(O)(C#CCN(CC)CC)c1ccccc1 (configuration not stated) 11.4

---

Below, each of the compounds is paired with its reported nuclei count value.
ASSAY_NAME: reduction of polyQ htt aggregates in cells – imaging, exon1htt(103Q)mCFP cells, high-content imaging, primary screen (AID 483);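 also: compound exposure lasted 3 days before fixation; percent of the per-plate median nuclei count of sample wells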
STUDY_CONDITIONS: exon1htt(103Q)mCFP cell line, aggregate imaging, at 2 µM; measured here: cell count, toxicity
Number only, in %; omit the unit.

Sample records with nuclei count:
[
  {
    "COMPOUND": "COC(=O)c1ccccc1NC(=O)c1ccc(COc2ccccc2)o1",
    "PROPERTY": "nuclei count",
    "RESULT_UNIT": "%",
    "QUANTITATIVE_READOUT": 113
  },
  {
    "COMPOUND": "CC(=O)NC(CCS(C)(=O)=O)C(=O)Nc1cccc2ccccc12 (stereo unspecified)",
    "PROPERTY": "nuclei count",
    "RESULT_UNIT": "%",
    "QUANTITATIVE_READOUT": 100
  },
  {
    "COMPOUND": "COc1ccccc1NC(=O)Cn1nnc(-c2ccccc2NC(=O)c2ccco2)n1",
    "PROPERTY": "nuclei count",
    "RESULT_UNIT": "%",
    "QUANTITATIVE_READOUT": 86.5
  },
  {
    "COMPOUND": "Cc1ccc2nc(NCCCN3CCOCC3)c(C=NCCCN3CCOCC3)c(=O)n2c1",
    "PROPERTY": "nuclei count",
    "RESULT_UNIT": "%",
    "QUANTITATIVE_READOUT": 10.5
  }
]

# nuclei count lookup, item c1ccc(CC2CCN(c3nc4ccccc4n4nnnc34)CC2)cc1 102

# nuclei count lookup, item COc1ccc(C)cc1NC(=O)CSc1nnnn1Cc1ccccc1 107

# nuclei count lookup, item COC(=O)c1cccc(Oc2nc3c(c(=O)n(C)c(=O)n3C)n2C(C)C)c1 102

# nuclei count lookup, item CCN1CCN(C(c2ccc(F)cc2)c2nnnn2Cc2cccs2)CC1 (stereo unspecified) 48.7

# nuclei count lookup, item N#CC1=C(N)SC(N)=C(C#N)C1c1ccc(C(F)(F)F)cc1 114

# nuclei count lookup, item CC(C)n1nc(C(=O)Nc2nc3ccc(S(C)(=O)=O)cc3s2)c2ccccc2c1=O 35.2

# nuclei count lookup, item CC(=O)NC(CCS(C)(=O)=O)C(=O)Nc1cc(C)on1 (stereo unspecified) 62.5
